So I've got a bunch of compounds here, and I need their ROS values.
Tested on: reactive oxygen species
Type: cell-based, mouse
particulars: composite Z-score vs DMSO; Conc 20 μM
Numbers only.

Check out these entries, answers already filled in.
>>> numericreadout("CC(N/C(=N\\C#N)Nc1ccncc1)C(C)(C)C (stereo not drawn) [pinacidil]")
0.655
>>> numericreadout("CC(C)CCC[C@@H](C)[C@H]1CC[C@H]2[C@@H]3CC(=O)[C@H]4C[C@@H](O)CC[C@]4(C)[C@H]3CC[C@]12C [5alpha-cholestan-3beta-ol-6-one]")
0.397
>>> numericreadout("CC[C@@H](C)C(=O)O[C@H]1[C@H](O)[C@H]2[C@@H](CN3C[C@@H](C)CC[C@H]3[C@@]2(C)O)[C@@H]2C[C@]34O[C@]5(O)[C@@H](OC(=O)[C@@](C)(O)CC)CC[C@@]3(C)[C@@H]5[C@@H](OC(C)=O)[C@@H](OC(C)=O)[C@H]4[C@@]21O [protoveratrine A]")
"−0.267"

Required: ROS, one value per compound below.
1. COc1ccc(C[C@H](N)C(=O)N[C@H]2[C@@H](O)[C@H](n3cnc4c(N(C)C)ncnc43)O[C@@H]2CO)cc1 [Puromycin, reference compound]
2. COC1=C(O)C(=O)c2c(cc3oc(C(C)=O)c(O)c3c2O)C1=O [rhodocladonic acid]
3. CCOC(=O)c1c(C)cc(OC)cc1O [ethyl everninate]

Ans.
["−2.665", 0.733, 0.125]
